Tested on: Staphylococcus aureus
Assay: Antibacterial activity against methicillin-susceptible […] Staphylococcus aureus ATCC 25923 after 24 hrs by two fold microdilution method
Format: functional
Conditions: ATCC 25923, 24 h
OBSERVATION_TYPE: MIC

Sample answers from the record:
OB(O)c1ccc(OCc2ccc(F)cc2)nc1 ... > 128 µg/mL
CCCCCOc1ccc(B(O)O)cn1 ... > 128 µg/mL
OB(O)c1ccc(OCCCCCCCc2ccccc2)nc1 ... > 16 µg/mL
OB(O)c1ccc(OCCCCCCc2ccccc2)nc1 ... > 16 µg/mL
OB(O)c1ccc(OCc2ccc3c(c2)OCO3)nc1 ... > 128 µg/mL
OB(O)c1ccc(OCCc2ccccc2)nc1 ... > 128 µg/mL
CCCCCCCCCCCCOc1ccc(B(O)O)cn1 ... > 16 µg/mL
OB(O)c1ccc(OCc2ccccc2)nc1 ... > 128 µg/mL
OB(O)c1ccc(Oc2ccccc2)nc1 ... > 128 µg/mL
OB(O)c1ccc(SCc2ccccc2)nc1 ... 64 µg/mL

Data request, read-out MIC, for OB(O)c1ccc(OCCCc2ccccc2)nc1
> 128 µg/mL
